The entries below come with measured EC50 values attached.
- test system: S1P1/EDG1 (Homo sapiens)
- Sequence (P21453 whole entry): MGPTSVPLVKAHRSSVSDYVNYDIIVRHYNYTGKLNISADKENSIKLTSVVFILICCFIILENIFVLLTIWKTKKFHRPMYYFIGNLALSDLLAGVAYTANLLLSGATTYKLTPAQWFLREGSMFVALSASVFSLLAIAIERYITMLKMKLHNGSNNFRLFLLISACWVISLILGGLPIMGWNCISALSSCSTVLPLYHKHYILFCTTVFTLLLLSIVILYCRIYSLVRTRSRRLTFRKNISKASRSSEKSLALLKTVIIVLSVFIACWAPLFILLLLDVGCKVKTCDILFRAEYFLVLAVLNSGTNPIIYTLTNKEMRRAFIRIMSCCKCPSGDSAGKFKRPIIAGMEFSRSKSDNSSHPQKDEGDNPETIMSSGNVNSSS
- assay remarks: S1P1 CRE-bla CHOK1 reporter assay, inhibition of Forskolin induced cAMP
- Format: cell-based
- conditions used: agonist activity range, S1P1 CRE-bla CHOK1, 2 μM Forskolin; read-out: S1P1 ACTIVITY

Answered examples (4):
compound: CC(C)Oc1ccc(-c2nc(-c3cccc4c3CC[C@@H]4NC(=O)N3CCC[C@H](O)C3)no2)cc1C#N
val: 0.05 to 0.5 nM
--
compound: CC(C)Oc1ccc(-c2nc(-c3cccc4c3CC[C@H]4O)no2)cc1C#N
val: < 0.05 nM
--
compound: CC(C)Oc1ccc(-c2nc(-c3cccc4c3CCC4NCCN3CCNCC3)no2)cc1C#N (racemic)
val: > 5 nM
--
compound: CCN(CC(=O)N(C)C)[C@@H]1CCc2c(-c3noc(-c4ccc(OC(C)C)c(C#N)c4)n3)cccc21
val: 0.5 to 5 nM

For the compound `CC(C)Oc1ccc(-c2nc(-c3cccc4c3CC[C@H]4N3CC(C(=O)O)C3)no2)cc1C#N` , report EC50.
< 0.05 nM

Entry CC(C)Oc1ccc(-c2nc(-c3cccc4c3CCC4N3CC[C@H](N)C3)no2)cc1C#N (mixture of isomers) needs its EC50 filled in; supply it.
0.5 to 5 nM

# return recorded EC50 for entry `CC(C)Oc1ccc(-c2nc(-c3cccc4c3CC[C@H]4N[C@H](C)C(=O)O)no2)cc1C#N`
< 0.05 nM

Provide only the value of recorded EC50 for `CC(C)Oc1ccc(-c2nc(-c3cccc4c3CC[C@H]4N3CCOC3=O)no2)cc1C#N`
0.05 to 0.5 nM
